Tested on: p21 promoter
Assay: Cell-based p21 promoter luciferase screen with IC50 validation in H1299 cells with doxycycline-inducible p53
Settings: Homo sapiens, NCI-H1299, p53 induced with doxycycline 0.5 μg/ml, luciferase under p21 promoter, about 20 hours
pIC50: −log10 of the molar value.
Param threshold (6) applies to pIC50; output 1 (yes) when value >= threshold, 0 (no) when value < threshold.

>  <Compound>
O=C(Nc1ccc(OCC(F)(F)C(F)F)c(C(F)(F)F)c1)c1ccccc1O

>  <Label>
0 (no)

$$$$

## Input Is pIC50 at least 6? Consider `Cc1c(Br)ccc(Nc2c([N+](=O)[O-])cc3c4c(cccc24)C(=O)N(CCO)C3=O)c1C`
## Output 0 (no)

## Input Tell me whether pIC50 is at least 6 here: `NS(=O)(=O)c1ccc(CCNc2ncnc3c2c(-c2ccccc2)cn3-c2ccc(Br)cc2)cc1`
## Output 0 (no)

## Input Please check the record Cc1ccc2[nH]c3c(c2c1)CCCC3Nc1ccccc1 (stereo not drawn) and state if its pIC50 is at or above 6.
## Output 1 (yes)

## Input Identify whether the reported pIC50 of the following compound is 6 or greater: CCc1ccc2c(c1)C1(NN=C(c3cccc4ccccc34)S1)C(=O)N2 (stereo not drawn)
## Output 0 (no)

These entries and their values trace back to patent US20150210717A1.
